# growth inhibition per entry
Assay procedure: NCI Yeast Anticancer Drug Screen. Data for the bub3 strain (AID 167)
Stated conditions: S. cerevisiae bub3 mutant strain, at 50.0 µM, hits give high values
About 79,000 compounds went through this panel and 15% of them were active in at least one assay; those are over-represented in the sample as a whole.
Numeric answer only, unit % assumed.

# growth inhibition of O=c1[nH]c(CCCc2ccccc2)c(Br)c(=O)[nH]1 = 15.1

###

Assay procedure: NCI Yeast Anticancer Drug Screen. Data for the sgs1 mgt1 strain (AID 161);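 also: 0% = growth of cultures given vehicle only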
Stated conditions: S. cerevisiae sgs1 mgt1 strain, at 50.0 µM, hits give high values
This is part of a sample that, as a whole, favours compounds with a hit. Of some 79,000 tested, about 15% had one in any assay.
Measured parameter: growth inhibition (%)
Numeric answer only, unit % assumed.

CC[C@]1(O)C(=O)OCc2c1cc1n(c2=O)Cc2cc3c(N)cccc3nc2-1: 9.75
BrCc1cccc2cccc(CBr)c12: 10.4
CN(C)C(=O)c1ccc[n+](CC(=O)NCc2ccccc2)c1: -3.4
COc1ccc(C2CC(=O)C(C(=O)OC3CCCCC3)C2c2ccc(OC)cc2)cc1 (stereo not given): 15.8

Proceed to the following item.
# growth inhibition of CCOC(=O)CNC(=O)C(CCSCc1ccccc1)NC(=O)OCc1ccccc1 (stereo not given) = 0.3

###

# growth inhibition per entry
Assay procedure: NCI Yeast Anticancer Drug Screen. Data for the bub3 strain (AID 167)
Stated conditions: S. cerevisiae bub3 mutant strain, at 50.0 µM, hits give high values
This is part of a sample that, as a whole, favours compounds with a hit. Of some 79,000 tested, about 15% had one in any assay.
Numeric answer only, unit % assumed.

CCCCCC(C)(C)O: 4.75
CCOC(CCCl)c1ccc(C)cc1 (configuration not stated): -33.6
COc1ccc(OC)c(CCCCC(N)=O)c1: 0.5
CCOc1ccc(OCC)c(NC(=O)OC(C)C)c1: 47.5
C=C(C)COB(OCC(=C)C)OCC(=C)C: -10.8
NCCCCC(C(=O)NCC(=O)O)N(C(=O)OCc1ccccc1)C(=O)OCc1ccccc1 (configuration not stated): -2.2

Proceed to the following item.
# growth inhibition of CC(=O)Oc1cccc(OC(C)=O)c1 = 6.8

###

Assay procedure: NCI Yeast Anticancer Drug Screen. Data for the mec2-1 strain (AID 157)
Stated conditions: S. cerevisiae mec2-1 strain, at 50.0 µM, hits give high values
About 79,000 compounds went through this panel and 15% of them were active in at least one assay; those are over-represented in the sample as a whole.
# growth inhibition per entry
Numeric answer only, unit % assumed.

Please review the entries below; each comes with its answer.
CCOC(=O)c1c(SC(=O)c2ccc(C(C)(C)C)cc2)n(-c2ccccc2)c(=S)n(-c2ccccc2)c1=O: 0.55
CCCCCCCOC(=O)c1ccccc1Cl: -10.1
CCC[CH2][Sn]([CH2]CCC)([O]C(=O)c1nccnc1N)[O]C(=O)c1nccnc1N: 92.5

Proceed to the following item.
# growth inhibition of CCCCCCOC(=O)c1ccccn1 = 1.7

###

# growth inhibition per entry
Assay procedure: NCI Yeast Anticancer Drug Screen. Data for the mlh1 rad18 strain (AID 175)
Stated conditions: S. cerevisiae mlh1 rad18 strain growth inhibition; at 50.0 µM; hits give high values
The panel holds about 79,000 compounds, 15% with a hit somewhere; the sample as a whole holds those more often.
Numeric answer only, unit % assumed.

CCOC(=O)CNC(=O)C(Cc1ccccc1)NC(=O)c1ccccc1[N+](=O)[O-] (stereo unspecified): 15.8
CN(C)CCCN1CCC2(CCC(C(C)(C)C)CC2)CC1: 49.8
C/C(N=NC(=S)N1CC(C)OC(C)C1)=C1\C=CC=CN1O (stereo unspecified): 8.85
CCOC(=O)C(NC(C)=O)(C(=O)OCC)C1CCCCC1=O (stereo unspecified): -20.5
CC(C)(C)CNC(=S)Nc1ccccc1: 10
CCOC(=O)C1C(c2ccc(Br)cc2)N(Cc2ccccc2)C(c2ccc(Br)cc2)C(C(=O)OC)S1(=O)=O (stereo unspecified): -22.1

# growth inhibition of Cn1cc(-c2ccccc2)cc1-c1ccccc1 = 9.75

# growth inhibition of CONCc1ccc(C(=O)NC(C)C)cc1 = -11.8

# growth inhibition of COC(=O)c1cc(-c2ccc3ccccc3c2)[nH]c(=O)c1C#N = 67.3

# growth inhibition of Cc1c(Br)cc(Br)c(O)c1Br = 31.1

# growth inhibition of NC(=O)N/N=C(\CCC(=O)N(Cc1ccccc1)Cc1ccccc1)CC(=O)c1ccc(F)cc1 = -14.9

# growth inhibition of O=C(N/N=C\c1cc(=O)[nH]c(=O)[nH]1)c1ccccc1 = 2.9

# growth inhibition of O=CC(=O)c1ccc(F)cc1 = 2

# growth inhibition of CCOC(=O)c1c[nH]c2ccc(-c3ccccc3)cc2c1=O = 24.9

# growth inhibition of C(=NCCSSCCN=Cc1ccccc1)c1ccccc1 = 21.6

# growth inhibition of C#Cc1nc(N)c2ncn(C3OC(COS(N)(=O)=O)C(O)C3O)c2n1 (stereo unspecified) = 10.6

This collection of values is drawn from PubChem BioAssay (NCI).
